tested on: LOX IMVI melanoma; assay: NCI-60 one-dose screen, 48 h; conditions: 10 µM unless noted
The panel holds about 83,000 compounds, 20% with a hit somewhere; the sample as a whole holds those more often. The source made the active and inactive calls. The calls were made as follows: active = growth percent below 10; inactive = the rest.
Just give me one of these, please: t = active, f = inactive

MOLECULE: Nc1c(C(=O)c2ccccc2)sc2nc(-c3cc4ccccc4o3)cc(-c3ccc(Cl)cc3)c12
TESTED SYSTEM: LOX IMVI melanoma
ASSIGNED LABEL: f
--
MOLECULE: O=C1c2ccccc2C(=O)c2c1oc1c2c(=O)[nH]c2ccc(Cl)cc21
TESTED SYSTEM: LOX IMVI melanoma
ASSIGNED LABEL: f

Given "COc1ccc2[nH]c(-c3ccccc3)c(C=C(C#N)C#N)c2c1" , state the outcome it received in this test.
f

Give the logged outcome of this assay for the following molecule: O=c1c2ccccc2n(CC(O)CN2CCCC2)c2c(Br)cccc12 (stereo not given)
f

Which outcome was entered for the molecule "COc1ccccc1Nc1nnc(-c2ccc(Cl)cc2)o1" in this test?
f
